Values compiled from ChEMBL document CHEMBL5705895.

Molecular target: Transient receptor potential cation channel subfamily A member 1 (Mus musculus, UniProt Q8BLA8)
Sequence (Q8BLA8 whole entry): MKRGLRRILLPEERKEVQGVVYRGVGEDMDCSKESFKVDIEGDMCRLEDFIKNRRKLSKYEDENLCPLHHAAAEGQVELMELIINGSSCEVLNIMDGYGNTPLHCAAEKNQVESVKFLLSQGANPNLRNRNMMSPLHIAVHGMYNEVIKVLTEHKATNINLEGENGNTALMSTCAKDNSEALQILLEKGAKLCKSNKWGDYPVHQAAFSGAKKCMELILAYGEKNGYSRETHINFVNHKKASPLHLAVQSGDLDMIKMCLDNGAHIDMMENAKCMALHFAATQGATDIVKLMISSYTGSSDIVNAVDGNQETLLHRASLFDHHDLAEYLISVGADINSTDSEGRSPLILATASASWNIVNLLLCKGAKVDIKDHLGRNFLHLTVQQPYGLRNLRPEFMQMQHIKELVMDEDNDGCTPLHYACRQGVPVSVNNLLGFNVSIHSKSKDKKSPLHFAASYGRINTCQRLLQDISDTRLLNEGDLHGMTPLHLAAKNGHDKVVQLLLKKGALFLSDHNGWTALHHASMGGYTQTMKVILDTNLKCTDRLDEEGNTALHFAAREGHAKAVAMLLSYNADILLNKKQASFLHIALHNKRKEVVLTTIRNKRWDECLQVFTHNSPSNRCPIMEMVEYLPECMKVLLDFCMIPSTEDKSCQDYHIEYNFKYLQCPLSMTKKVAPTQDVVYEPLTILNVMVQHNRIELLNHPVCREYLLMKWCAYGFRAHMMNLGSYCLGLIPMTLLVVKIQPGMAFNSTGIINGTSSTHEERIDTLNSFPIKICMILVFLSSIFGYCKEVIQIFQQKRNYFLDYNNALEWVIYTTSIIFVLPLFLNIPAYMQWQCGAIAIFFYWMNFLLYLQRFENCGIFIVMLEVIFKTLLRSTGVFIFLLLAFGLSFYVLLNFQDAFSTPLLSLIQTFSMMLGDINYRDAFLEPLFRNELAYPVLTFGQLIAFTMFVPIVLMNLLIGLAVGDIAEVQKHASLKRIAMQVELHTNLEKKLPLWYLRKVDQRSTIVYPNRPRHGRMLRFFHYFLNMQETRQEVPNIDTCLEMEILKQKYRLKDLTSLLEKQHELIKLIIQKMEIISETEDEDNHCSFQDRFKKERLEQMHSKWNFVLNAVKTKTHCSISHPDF
Experiment: Agonist activity at full length mouse TRPA1 transfected in HEK293F cells assessed as increase in Ca2+ influx by FLIPR calcium assay
valueKind: pEC50
Please treat pEC50 as minus the base-10 logarithm of the molar concentration.

> print(dat)
                                   compound  numericresult
1  NC(=O)c1cccc(-c2cccc(OC(=O)NC3CCCCC3)c2)c1           4.13
2  CCCCC/C=C/C=C1/C(=O)C=C[C@@H]1C/C=C\CCCC(=O)O           4.25
3  CC(C)=CCC/C(C)=C/CC/C(C)=C/CSc1ccccc1C(=O)O           4.07

Next, consider the following compound.
Exercise: Look up and state reported pEC50 for CC1CCC(C(C)C)C(O)C1 (configuration not stated)
Key: 5.28

====

Target: Transient receptor potential cation channel subfamily A member 1 (Macaca mulatta, UniProt A0A1D5QMT1)
Sequence (A0A1D5QMT1 whole entry): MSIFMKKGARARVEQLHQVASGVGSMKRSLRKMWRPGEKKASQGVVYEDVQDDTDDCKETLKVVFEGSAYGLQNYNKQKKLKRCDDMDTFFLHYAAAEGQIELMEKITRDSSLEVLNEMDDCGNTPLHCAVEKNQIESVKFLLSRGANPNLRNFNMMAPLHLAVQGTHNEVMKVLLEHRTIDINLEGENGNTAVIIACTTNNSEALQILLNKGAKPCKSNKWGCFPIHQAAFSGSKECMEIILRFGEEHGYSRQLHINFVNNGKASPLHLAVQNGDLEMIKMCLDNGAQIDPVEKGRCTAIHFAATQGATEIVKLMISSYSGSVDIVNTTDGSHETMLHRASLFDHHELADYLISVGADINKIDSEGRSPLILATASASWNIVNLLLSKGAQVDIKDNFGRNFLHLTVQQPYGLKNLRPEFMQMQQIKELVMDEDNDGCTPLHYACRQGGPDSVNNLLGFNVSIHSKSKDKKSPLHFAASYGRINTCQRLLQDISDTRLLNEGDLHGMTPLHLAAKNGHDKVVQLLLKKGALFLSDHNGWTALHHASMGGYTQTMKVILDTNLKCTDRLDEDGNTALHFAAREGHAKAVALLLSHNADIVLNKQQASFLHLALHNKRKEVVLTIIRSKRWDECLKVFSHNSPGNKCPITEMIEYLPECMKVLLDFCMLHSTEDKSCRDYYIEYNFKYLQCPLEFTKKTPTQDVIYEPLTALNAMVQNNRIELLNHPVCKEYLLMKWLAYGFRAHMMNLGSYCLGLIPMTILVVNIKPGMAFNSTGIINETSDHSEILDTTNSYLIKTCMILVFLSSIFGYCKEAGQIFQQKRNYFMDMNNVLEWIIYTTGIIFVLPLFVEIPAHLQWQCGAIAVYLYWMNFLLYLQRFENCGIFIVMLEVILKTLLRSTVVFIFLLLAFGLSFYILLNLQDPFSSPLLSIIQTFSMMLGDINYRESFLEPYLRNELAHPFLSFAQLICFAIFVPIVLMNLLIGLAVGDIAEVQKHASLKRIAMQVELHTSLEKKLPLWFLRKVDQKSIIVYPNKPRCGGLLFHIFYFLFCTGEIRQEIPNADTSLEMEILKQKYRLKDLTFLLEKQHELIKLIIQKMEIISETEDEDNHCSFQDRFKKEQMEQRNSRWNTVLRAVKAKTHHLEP
Experiment: Activation of full length rhesus monkey TRPA1 transfected in HEK293F cells assessed as 120 uM of MO-induced current Blockade at -60 mV by whole-cell recording analysis
Type: cell-based
valueKind: pIC50
Note on pIC50: it is the negative log10 of concentration, concentration in mol/L.

Exercise: Provide one value: measured pIC50 of CCC(=N\O)/C(C)=C/c1ccc(F)cc1
Key: 6.22

====

Target: Transient receptor potential cation channel subfamily A member 1 (Rattus norvegicus, UniProt Q6RI86)
Sequence (Q6RI86 whole entry): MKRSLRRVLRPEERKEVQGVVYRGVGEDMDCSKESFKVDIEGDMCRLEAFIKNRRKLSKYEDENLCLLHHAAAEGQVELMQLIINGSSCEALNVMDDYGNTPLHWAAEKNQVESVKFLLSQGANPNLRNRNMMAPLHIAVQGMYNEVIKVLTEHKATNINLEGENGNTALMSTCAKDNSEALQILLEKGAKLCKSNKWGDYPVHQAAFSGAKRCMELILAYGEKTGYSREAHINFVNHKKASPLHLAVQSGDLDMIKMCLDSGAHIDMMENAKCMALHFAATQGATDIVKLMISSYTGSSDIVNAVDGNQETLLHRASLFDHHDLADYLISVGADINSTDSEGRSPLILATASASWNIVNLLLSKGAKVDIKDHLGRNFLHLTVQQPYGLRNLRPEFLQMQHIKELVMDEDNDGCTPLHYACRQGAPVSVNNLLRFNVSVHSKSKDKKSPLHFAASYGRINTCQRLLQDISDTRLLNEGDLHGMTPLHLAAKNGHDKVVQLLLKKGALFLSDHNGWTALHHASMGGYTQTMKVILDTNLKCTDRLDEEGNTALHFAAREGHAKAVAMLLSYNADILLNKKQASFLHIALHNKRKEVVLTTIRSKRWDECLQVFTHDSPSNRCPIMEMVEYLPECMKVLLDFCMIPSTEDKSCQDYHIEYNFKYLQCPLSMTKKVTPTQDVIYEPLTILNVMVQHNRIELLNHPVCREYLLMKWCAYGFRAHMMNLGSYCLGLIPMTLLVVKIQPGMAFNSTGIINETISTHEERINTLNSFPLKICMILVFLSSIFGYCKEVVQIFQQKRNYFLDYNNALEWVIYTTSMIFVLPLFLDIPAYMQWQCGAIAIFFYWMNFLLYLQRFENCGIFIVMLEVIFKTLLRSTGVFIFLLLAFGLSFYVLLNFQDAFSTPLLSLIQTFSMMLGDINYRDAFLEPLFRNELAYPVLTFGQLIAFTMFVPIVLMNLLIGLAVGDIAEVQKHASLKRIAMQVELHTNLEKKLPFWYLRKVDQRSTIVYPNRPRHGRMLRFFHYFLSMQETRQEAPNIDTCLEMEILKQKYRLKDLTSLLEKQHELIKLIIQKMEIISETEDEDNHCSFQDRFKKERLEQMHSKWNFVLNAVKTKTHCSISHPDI
Assay: Antagonist activity at full length rat TRPA1 transfected in HEK293F cells assessed as blockade of MO-induced TRPA1 channel activation by measuring Ca2+ influx in presence of 30 uM MO by FLIPR calcium assay
Each item that follows carries a reported pIC50.
Please keep in mind that pIC50 is minus log10 of the molar concentration; only the number is needed.

A selection of reference data follows.
> print(dat)
                                   molecule  numericresult
1  CC(C)c1ccc(NC(=O)Cn2cnc3c2c(=O)n(C)c(=O)n3C)cc1           5.12
2  CC1CCC(C(C)C)C(O)C1 (centres undefined) [MENTHOL]           3.29
3      CCC(=N\O)/C(C)=C/c1ccc(F)cc1 [A-079]           6.48

Switching to the query record.
Exercise: Return the recorded pIC50 value; entry: CC(=C\c1ccc(Cl)cc1)/C(C)=N/O [AP18 5]
Key: 4.40

====

Biological target: Transient receptor potential cation channel subfamily A member 1 (Mus musculus, UniProt Q8BLA8)
Test: Agonist activity at full length mouse TRPA1 transfected in HEK293F cells assessed as increase in Ca2+ influx by FLIPR calcium assay
# Lookup of reported EC50 keyed by entry
Please state the figure in µM; there is no need to write the unit.

Reference set, count: 2
> print(dat)
                                   molecule  valuekind  numericresult
1                Cn1c(=O)c2c(ncn2C)n(C)c1=O       EC50           61.8
2  CCCCCC(O)/C=C/C=O (stereo not drawn) [4-HYDROXYNON-2-ENAL]       EC50            6.6

Moving on to the next molecule.
Exercise: Supply measured EC50 of O=C/C=C/c1ccccc1 in your reply.
Key: 3.4
